# PROTOCOL_TEXT: GFP drop in mixed WT/humanized-ribosome E. coli culture – GFP/RFP fluorescence, OD600, single point, bacterial rRNA inhibitor project, primary screen (AID 720706)
# MEASUREMENT_CONDITIONS: E. coli WT GFP vs humanized-ribosome RFP mutants, 24 h, DMSO median 0, no signal -100
Screen size: about 350,000 compounds; about 5,500 (1.6%) were called active.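 Rule for the calls: active = significant combined selectivity score with lowered wild-type GFP, culture density cut under 30%, mutant RFP and density less affected; inactive = any of these conditions unmet.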 The entries come from a sample that favours actives as a whole.
Labels: 1 (active), -1 (inactive)

[[record]]
molecule = "Cc1cc(C)c(C#N)c(SCc2[nH]nc3c2C(c2ccccc2)C(C#N)=C(N)O3)n1 (stereo not given)"
label = 1

[[record]]
molecule = "NC(=O)c1ccc(NC(=O)COC(=O)c2c3c(nc4ccccc24)/C(=C\\c2ccc4c(c2)OCO4)CCC3)cc1"
label = -1

[[record]]
molecule = "C[C@H](CO)N1C[C@H](C)[C@H](CN(C)C(=O)C2CC2)OCc2ccccc2-c2ccccc2C1=O"
label = -1

[[record]]
molecule = "N#CC1=C(N)Oc2cc(N)ccc2C1c1ccccc1 (stereo not given)"
label = -1

[[record]]
molecule = "C(=N\\Nc1ccc2ccccc2n1)/c1ccc2c(c1)OCO2"
label = 1


----------
Measured OD600 change of individual entries
# PROTOCOL_TEXT: GFP drop in mixed WT/humanized-ribosome E. coli culture – GFP/RFP fluorescence, OD600, single point, bacterial rRNA inhibitor project, primary screen (AID 720706)
# MEASUREMENT_CONDITIONS: E. coli WT GFP vs humanized-ribosome RFP mutants, 24 h; measured here: OD600 growth, DMSO median 0, no signal -100
The campaign covered roughly 350,000 compounds. About 5,500 (1.6%) were called active. What follows is part of a selection rich in actives, with near analogues and random picks from the rest.
EXPERIMENTAL_READOUT: OD600 change (%)

[[record]]
compound = "CC(C)(C)C1CCC(=NNC(=O)c2cc(-c3ccccc3)n[nH]2)CC1 (stereo unspecified)"
experimental_value = 6.81

[[record]]
compound = "O=C(c1ccc(F)cc1)N1CC(=O)N2[C@H](CO)[C@H](c3ccc(-c4ccccc4F)cc3)[C@@H]2C1"
experimental_value = -9.64

[[record]]
compound = "COc1ccc(C#Cc2ccc([C@H]3[C@@H](CO)N4CCCCN(S(=O)(=O)c5cn(C)cn5)C[C@H]34)cc2)cc1"
experimental_value = -77.4

[[record]]
compound = "COc1ccccc1C1/C(=C(/O)c2ccc(C)cc2)C(=O)C(=O)N1Cc1ccco1 (stereo unspecified)"
experimental_value = 7.9

[[record]]
compound = "CCn1c(CNC(=O)c2cc(OC)c(OC)c(OC)c2)cc2cc(C)ccc21"
experimental_value = 1.59

[[record]]
compound = "COc1ccc(C2/C(=C(/O)c3ccccc3)C(=O)C(=O)N2C)c(OC)c1 (stereo unspecified)"
experimental_value = 2.38

[[record]]
compound = "CN1CCN(C(=O)c2ccc(-c3ccc(Br)cc3)o2)CC1"
experimental_value = -1.78

[[record]]
compound = "O=c1[nH]c(CSc2ccccc2)nc2c1oc1ccccc12"
experimental_value = 3

[[record]]
compound = "C[C@H]1CCCCO[C@@H](CN(C)Cc2ccncc2)[C@@H](C)CN([C@@H](C)CO)C(=O)c2cc(NC(=O)Nc3ccc(F)cc3)ccc2O1"
experimental_value = 2.48

[[record]]
compound = "CC(C)NC(=O)N(C)C[C@@H]1Oc2ccc(NC(=O)CCCCCC(=O)Nc3ccccc3N)cc2C(=O)N([C@@H](C)CO)C[C@H]1C"
experimental_value = -8.13

[[record]]
compound = "CCn1c(SCC(=O)Nc2nccs2)nnc1-c1ccco1"
experimental_value = 0.14

[[record]]
compound = "C[C@@H](Nc1nc(-c2ccccc2)nc2c1oc1ccccc12)C(=O)O"
experimental_value = -3.54

[[record]]
compound = "CC1CCN(C(=S)c2ccc(-c3ccc(Cl)cc3Cl)o2)CC1"
experimental_value = -16.4

[[record]]
compound = "COCC#Cc1ccc([C@@H]2[C@@H](CO)N3CCCCN(C(=O)COC)C[C@@H]23)cc1"
experimental_value = 1.27

[[record]]
compound = "COc1ccc2c3c([nH]c2c1)[C@@H](CO)N(Cc1ccc2c(c1)OCO2)CC31CN(C(=O)Nc2c(C)noc2C)C1"
experimental_value = 0.39

[[record]]
compound = "CCOc1ccc(/C(O)=C2\\C(=O)C(=O)N(c3ccc(OC)cc3)C2c2ccccc2[N+](=O)[O-])cc1 (stereo unspecified)"
experimental_value = 6.17

[[record]]
compound = "CO[C@H]1CN(C)C(=O)c2ccc(NC(=O)c3ccccc3F)cc2OC[C@H](C)N(C(=O)c2ccccc2F)C[C@H]1C"
experimental_value = -1.65

[[record]]
compound = "CO[C@H]1CN(C)C(=O)c2ccc(NC(C)=O)cc2OC[C@@H](C)N(C(=O)CN(C)C)C[C@@H]1C"
experimental_value = 6.54

[[record]]
compound = "COCC(=O)N1CCCCN2[C@H](C1)[C@@H](c1ccc(-c3ccccc3)cc1)[C@@H]2CO"
experimental_value = -5.68

[[record]]
compound = "COCCNc1nc(-c2ccccc2)nc2c1oc1ccccc12"
experimental_value = -50.5

[[record]]
compound = "CS(=O)(=O)N1CCCCN2[C@@H](CO)[C@@H](c3ccc(Br)cc3)[C@@H]2C1"
experimental_value = 1.18

[[record]]
compound = "N#Cc1ccc(-c2ccc([C@H]3[C@H](CO)N4C(=O)CN(C(=O)Cc5ccccc5)C[C@@H]34)cc2)cc1"
experimental_value = -2.88

[[record]]
compound = "C[C@@H]1CN([C@H](C)CO)S(=O)(=O)c2ccc(C#CC(C)(C)O)cc2O[C@@H]1CN(C)Cc1ccccc1"
experimental_value = -3.23

[[record]]
compound = "O=C(c1ccncc1)N1CC(=O)N2[C@H](C1)[C@@H](c1ccc(C#CCC3CCCC3)cc1)[C@@H]2CO"
experimental_value = -56.8

[[record]]
compound = "CCCC#Cc1ccc([C@H]2[C@H]3CN(C(=O)Nc4cc(F)ccc4F)CC(=O)N3[C@H]2CO)cc1"
experimental_value = -50.2

[[record]]
compound = "C[C@@H](NC(=O)C[C@@H]1CC[C@H](NC(=O)Cc2ccccn2)[C@H](CO)O1)c1ccccc1"
experimental_value = -1.33

[[record]]
compound = "C/C=C/c1cccc(-c2nc(C(=O)NCCN3CCCC3)cc3c2[C@@H](CCO)N([S@](=O)C(C)(C)C)C3)c1"
experimental_value = -2.18

[[record]]
compound = "COc1cc(C(=O)NCC(=O)N2CC=C(c3ccccc3)CC2)cc(OC)c1OC"
experimental_value = -22

[[record]]
compound = "CCCN(C)C[C@@H]1Oc2ncc(-c3ccccc3F)cc2C(=O)N([C@@H](C)CO)C[C@@H]1C"
experimental_value = 19.7

[[record]]
compound = "CS(=O)(=O)N1CCCCN2[C@H](CO)[C@H](c3ccc(-c4cccc(C#N)c4)cc3)[C@H]2C1"
experimental_value = 2.86

[[record]]
compound = "S=C(c1ccc(-c2ccccc2)o1)N1CCCCC1"
experimental_value = -14.7

[[record]]
compound = "O=C(NC1CCC1)[C@@H]1[C@@H](CO)[C@@H]2Cn3c(ccc(/C=C/c4ccccc4)c3=O)[C@@H]2N1Cc1ccncc1"
experimental_value = -7.87

[[record]]
compound = "CCNC(=O)[C@H]1[C@H](CO)[C@H]2Cn3c(cccc3=O)[C@H]2N1C(=O)C1CCCC1"
experimental_value = -2.66

[[record]]
compound = "COc1cccc(CNC(=O)[C@H]2CCCN2C(=O)[C@H]2CCCN2C(=O)c2ccc(F)cc2)c1"
experimental_value = 11.4

[[record]]
compound = "O=C(C[C@@H]1CC[C@@H](NC(=O)Nc2ccc(F)cc2)[C@H](CO)O1)NCCN1CCCC1"
experimental_value = 4.7

[[record]]
compound = "Cn1c(SCC(=O)Nc2nccs2)nnc1-c1cccnc1"
experimental_value = 16.8


----------
# PROTOCOL_TEXT: GFP drop in mixed WT/humanized-ribosome E. coli culture – GFP/RFP fluorescence, OD600, single point, bacterial rRNA inhibitor project, primary screen (AID 720706)
# MEASUREMENT_CONDITIONS: E. coli WT GFP vs humanized-ribosome RFP mutants, 24 h; measured here: OD600 growth, DMSO median 0, no signal -100
Hit rate of the full screen: of about 350,000 compounds, about 5,500 (1.6%) were called active. This excerpt belongs to a sample that is enriched for actives.
EXPERIMENTAL_READOUT: OD600 change (%)

[[record]]
chemical_structure = "COc1ccccc1-c1n[nH]nc1C1=CC(=O)CC(C)(C)C1"
experimental_readout = "OD600 change"
unit_descriptor = "%"
experimental_value = -12.1

[[record]]
chemical_structure = "CCOC(=O)C(=Cc1ccccc1OC)C(=O)OCC"
experimental_readout = "OD600 change"
unit_descriptor = "%"
experimental_value = -6.41

[[record]]
chemical_structure = "COC(=O)C[C@H]1C[C@H]2c3cc(NC(=O)NC4CCCCC4)ccc3O[C@H]2[C@H](CO)O1"
experimental_readout = "OD600 change"
unit_descriptor = "%"
experimental_value = 0.77

[[record]]
chemical_structure = "COc1ccc(OC)c(-c2csc(NC(=O)C3=NNC(=O)CC3)n2)c1"
experimental_readout = "OD600 change"
unit_descriptor = "%"
experimental_value = -29.6

[[record]]
chemical_structure = "C[C@H](CO)N1C[C@H](C)[C@H](CN(C)C)Oc2ccc(NC(=O)c3ccncc3)cc2CC1=O"
experimental_readout = "OD600 change"
unit_descriptor = "%"
experimental_value = 14.2


Every entry's value here was drawn from PubChem BioAssay AID720706.
